# System: CSM14.1 neuronal cells
# measurement-protocol: Cell survival assay (thapsigargin-induced cell death, CELLTITER-GLO)
# Type: cell-based
# particulars: compound 2 hrs before about 15 μM thapsigargin, overnight (about 16 to 24 hrs), luminescence
pEC50: −log10 of the molar value.
Kindly state pEC50 for each of the entries shown.

// below: answered compounds
| molecule-smiles | pEC50 |
| --- | --- |
| O=C(Nc1cccc2nccnc12)c1cc2ccccc2s1 | 5.00 to 6.00 |
| O=C(Nc1cccc2nccnc12)c1ccc(C(F)(F)F)cc1 | ≥ 6.00 |
| O=C(Nc1cccc2nccnc12)c1cc(Br)cs1 | 5.00 to 6.00 |
| O=C(Nc1cccc2nccnc12)c1ccc(Br)s1 | 4.70 to 5.00 |

Note: attention shifts to another entry.
input: // lookup pEC50 for "CC(C)Oc1cccc(C(=O)Nc2cccc3nccnc23)c1"
output: 4.70 to 5.00

###

Kindly state inhibition in vivo at 50 mg/kg for each of the entries shown.
# Test system: Ob/ob mice
# measurement-protocol: Effect of a SERCA agonist on the level of blood glucose
# Type: in vivo
# particulars: Mus musculus, ip, 96 h, 50 mg/kg i.p. once a day for 5 days, fasting glucose at baseline and 4 days after administration, read-out: Glucose level reduction

// below: answered compounds
| compound | result |
| --- | --- |
| O=C(Nc1cccc2nccnc12)c1ccc(Br)s1 [A3] | 10 to 20% |
| Cc1ccc(C(=O)Nc2cccc3nccnc23)s1 [A4] | 10 to 20% |
| O=C(Nc1cccc2nccnc12)c1cc(Br)cs1 [A2] | 21 to 30% |
| O=C(Nc1cccc2nccnc12)c1cccc(F)c1 [A10, 3-fluoro-N-(quinoxalin-5-yl)benzamide] | > 30% |
| O=C(Nc1cccc2nccnc12)c1cc2ccccc2s1 [A6] | 10 to 20% |

Fill in inhibition in vivo at 50 mg/kg for each of the 5 compounds listed.
1. O=C(Nc1cccc2nccnc12)c1ccc(C(F)(F)F)cc1 [A9]
2. CC(C)Oc1cccc(C(=O)Nc2cccc3nccnc23)c1 [A8]
3. O=C(Nc1cccc2nccnc12)c1cccs1 [A5]
4. O=C(Nc1cccc2nccnc12)c1ccc(Cl)cc1 [A7, 4-Chloro-N-(quinoxalin-5-yl)benzamide]
5. CC(C)Oc1ccc(C(=O)Nc2cccc3nccnc23)cc1 [A1]

output:
1. 21 to 30%
2. 21 to 30%
3. > 30%
4. 10 to 20%
5. 21 to 30%

###

# Test system: CSM14.1 neuronal cells
# measurement-protocol: Cell survival assay (thapsigargin-induced cell death, CELLTITER-GLO)
# Assay type: cell-based
# particulars: compound 2 hrs before about 15 μM thapsigargin, overnight (about 16 to 24 hrs), luminescence
pEC50: −log10 of the molar value.
reported-property: pEC50

| compound | pEC50 |
| --- | --- |
| CC(C)Oc1ccc(C(=O)Nc2cccc3nccnc23)cc1 | 5.00 to 6.00 |

Fill in pEC50 for each of the 4 compounds listed.
1. O=C(Nc1cccc2nccnc12)c1cccc(F)c1 [A10, 3-fluoro-N-(quinoxalin-5-yl)benzamide]
2. O=C(Nc1cccc2nccnc12)c1cccs1
3. O=C(Nc1cccc2nccnc12)c1ccc(Cl)cc1 [A7, 4-Chloro-N-(quinoxalin-5-yl)benzamide]
4. Cc1ccc(C(=O)Nc2cccc3nccnc23)s1

output:
["5.00 to 6.00", "4.70 to 5.00", "≥ 6.00", "5.00 to 6.00"]

Measured values drawn from patent US10730843B1 for this set.
